Test: Pharmacokinetic evaluation of liquid bevirimat dosage forms, oral gavage, male Cynomolgus monkeys
Details: male, cynomolgus monkey, in vivo, po, 50 mg, t1/2, 50 mg FAE/mL in 40% PG:20% Glycerin:1% TPGS:5% Tween 80 in SWFI, 50 mg FAE/monkey oral gavage; monkeys 117,118,119,AVG
measurement-name: half-life (h)
The reply should contain only the number, in h.

## Task Fill in the blank: the reported half-life of `C=C(C)[C@@H]1CC[C@]2(C(=O)O)CC[C@]3(C)[C@H](CC[C@@H]4[C@@]5(C)CC[C@H](OC(=O)CC(C)(C)C(=O)O)C(C)(C)[C@@H]5CC[C@]43C)[C@@H]12` is ____.
## Result 11.8
